# Test system: MOLM-13 cells
# ASSAY DETAILS: Cell viability assay (CellTiter-Glo) in MOLM-13 cells, alone or with gilteritinib
# Assay type: cell-based
# EXPERIMENTAL SETUP: Homo sapiens, MOLM-13, 72 h, MOLM-13 cells, compound alone (without gilteritinib), three days, CellTiter-Glo; read-out: MOLM-13 IC50
Recorded IC50 by entry

Lookup: Determine its reported IC50: O=C1CCC(N2C(=O)c3ccc(C#CCCCCn4cc(-c5cnc6ccccc6n5)cn4)cc3C2=O)C(=O)N1 (stereo not drawn)
Found: > 1 µM

Lookup: Annotate the compound O=C1CCC(N2C(=O)c3ccc(NC[C@H]4C[C@H](n5cc(-c6cc(N7CCNCC7)ccn6)c(C6CC6)n5)C4)cc3C2=O)C(=O)N1 (stereo partly drawn) with its measured IC50.
Found: > 1 µM

Lookup: Identify IC50 associated with the compound CN1CCN(c2cnn(C3CCN(C(=O)CCCCCNc4ccc5c(c4)C(=O)N(C4CCC(=O)NC4=O)C5=O)CC3)c2)CC1 (stereo not drawn)
Found: 0.1 to 1 µM

Lookup: Output measured IC50 for this item: O=C1CCC(N2C(=O)c3ccc(NCCC4CC(C(=O)N5CCC(n6cc(-c7cnc8ccccc8n7)cn6)CC5)C4)cc3C2=O)C(=O)N1 (stereo not drawn)
Found: 0.01 to 0.1 µM

Lookup: Let me know recorded IC50 for O=C1CCC(N2C(=O)c3ccc(NCCCCC4(N5CCC(n6cc(-c7cnc8ccccc8n7)cn6)CC5)CC4)cc3C2=O)C(=O)N1 (stereo not drawn) , thanks.
Found: > 1 µM

* * *

# System: MOLM-13 cells
# ASSAY DETAILS: Cell viability assay (CellTiter-Glo) in MOLM-13 cells, alone or with gilteritinib
# Format: cell-based
# EXPERIMENTAL SETUP: Homo sapiens, MOLM-13, 72 h, MOLM-13 cells, compound alone (without gilteritinib), three days, CellTiter-Glo; read-out: MOLM-13 IC50
pIC50: −log10 of the molar value.
Measured pIC50, listed per entry.

O=C1CCC(N2C(=O)c3ccc(NCCC[C@H]4C[C@H](n5cc(-c6cnc7c(C8CCOCC8)cccc7n6)cn5)C4)cc3C2=O)C(=O)N1 (stereo partly drawn) : 7.00 to 8.00
Cc1nc2ccccc2nc1-c1cnn(CCCCCCCc2ccc3c(c2)C(=O)N(C2CCC(=O)NC2=O)C3)c1 (stereo not drawn) : 7.00 to 8.00

Please find the next molecule below.
Lookup: Provide measured pIC50 value, entry: O=C1CCC(N2C(=O)c3ccc(NC[C@H]4C[C@@H](n5cc(-c6cnc7ccc(N8CCOCC8)cc7n6)cn5)C4)cc3C2=O)C(=O)N1 (stereo partly drawn)
Found: 6.00 to 7.00

* * *

The following compounds are shown together with reported IC50 values.
# Test system: MV4;11 cells
# ASSAY DETAILS: Cell viability assay (CellTiter-Glo) in MV4;11 cells, alone or with gilteritinib
# Type: cell-based
# EXPERIMENTAL SETUP: Homo sapiens, MV4-11, 72 h, MV4;11 cells, compound with gilteritinib 10 nM, three days, CellTiter-Glo; read-out: MV4; 11 IC50 gilteritinib

Here are 5 compounds together with their reported answers.
O=C1CCC(N2C(=O)c3ccc(NC4CC5(C4)CC(n4cc(-c6cnc7ccccc7n6)cn4)C5)cc3C2=O)C(=O)N1 (centres unmarked) [GS-527] : 100 to 1000 nM
O=C1CCC(N2C(=O)c3ccc(NCCCCCCn4nc(C(F)(F)F)c(-c5cnc6ccccc6n5)c4C(F)(F)F)cc3C2=O)C(=O)N1 (centres unmarked) [GS-554] : 10 to 100 nM
O=C1CCC(N2C(=O)c3ccc(NC[C@H]4C[C@H](n5cc(-c6cccc(C7CC7)n6)c(C6CC6)n5)C4)cc3C2=O)C(=O)N1 (some centres unmarked) [GS-466] : 10 to 100 nM
O=C1CCC(N2C(=O)c3ccc(NCCCCCCn4ccc(-c5cnc6ccccc6n5)n4)cc3C2=O)C(=O)N1 (centres unmarked) [GS-536] : 100 to 1000 nM
CN1CCC(c2ccc3ncc(-c4cnn(CCCCCCNc5ccc6c(c5)C(=O)N(C5CCC(=O)NC5=O)C6=O)c4)nc3c2)CC1 (centres unmarked) [GS-548] : < 10 nM

Lookup: Give recorded IC50. Cc1cccc(-c2cnn(CCCCCCNc3ccc4c(c3)C(=O)N(C3CCC(=O)NC3=O)C4=O)c2)n1 (centres unmarked) [GS-498]
Found: 10 to 100 nM

Lookup: Fill in IC50 for record O=C1CCC(N2C(=O)c3ccc(NCCCCn4cc(-c5cnc6ccccc6n5)c(C5CC5)n4)cc3C2=O)C(=O)N1 (centres unmarked) [GS-450]
Found: 10 to 100 nM

Lookup: Consider the compound Cc1nc(-c2cn([C@H]3C[C@H](CNc4ccc5c(c4)C(=O)N(C4CCC(=O)NC4=O)C5=O)C3)nc2C(F)F)ccc1F (some centres unmarked) [GS-635] . State its measured IC50.
Found: < 10 nM

Lookup: Quote IC50 reported for CC(C)n1ncc2cnc(-c3cn([C@H]4C[C@H](CNc5ccc6c(c5)C(=O)N(C5CCC(=O)NC5=O)C6=O)C4)nc3C3CC3)cc21 (some centres unmarked) [GS-614] please.
Found: < 10 nM

Lookup: Report measured IC50; entry is O=C1CCC(N2C(=O)c3ccc(NCC4CC5(C4)CC(n4cc(-c6cnc7ccccc7n6)cn4)C5)cc3C2=O)C(=O)N1 (centres unmarked) [GS-539]
Found: 100 to 1000 nM
